Source: patent US20090306112A1

STUDY_TARGET: recombinant HIV-1 protease expressed in E. Coli (Human immunodeficiency virus type 1 group M subtype B, UniProt P04585)
Construct: Enzyme: recombinant HIV-1 protease expressed in E. Coli; purchased Bachem California, Inc. (Torrance, Calif.) H-9040; host or cells: E. coli
METHOD: HIV-1 Protease Enzyme Assay (Ki), fluorimetric detection of hexapeptide substrate cleavage
Assay type: biochemical
SETUP_CONDITIONS: tight-binding competitive inhibition; 37° C., pH 5.3, final substrate concentration 40 μM, enzyme 1 to 2.5 nM

COMPOUND	Ki
Cc1cccc(C)c1OCC(=O)NN(Cc1ccc(-c2ccccn2)cc1)C[C@H](O)[C@H](Cc1ccccc1)NC(=O)O[C@H]1CO[C@H]2OCC[C@H]21	< 30 pM
COC(=O)NC(C(=O)NN(Cc1ccc(OCc2ccncc2)cc1)C[C@H](O)[C@H](Cc1ccc(OC)cc1)NC(=O)O[C@H]1CO[C@H]2OCC[C@H]21)C(C)(C)C (stereo partly drawn)	< 30 pM
CC(C)(C)C(NC(=O)OCc1cscn1)C(=O)NN(Cc1ccc(-c2ccccn2)cc1)C[C@H](O)[C@H](Cc1ccccc1)NC(=O)O[C@H]1CO[C@H]2OCC[C@H]21 (stereo partly drawn)	< 30 pM
